Assay: protein stability index of a GFP-peptide fusion (GPS, HEK-293T) (PSI 1-6); higher = more stable;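 note: 24-mer peptide tiles fused after GFP, lentivirally expressed, FACS-sorted into six equal bins by GFP/DsRed ratio, decoded by Illumina sequencing, PSI is the read-weighted mean bin number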
Details: treatment: MLN4924 1 uM, 8 h; c terminus: a fixed tail appended
# protein stability index >= 4 gives Criterion met, anything below gives Criterion not met

Sequence	Label class
KPPYSYATLICMAMQASKATKITL [FOXJ1]	Criterion not met
ACDELFSYLIEKVKRKKNVLRLCC [PRAME]	Criterion not met
DSDENSKPSVDTEGPALVEIDRSV [MIA2]	Criterion met
SIEVGGSVNFDGETIEGAPPLWAA [FEM1C]	Criterion met

QUERY: protein stability index >= 4 for KWTGDFFNKGIYDIHVGLRGVPLL [CLCN6] ?
RESULT: Criterion not met

QUERY: protein stability index >= 4 for LFFPEGTCSNKKALLKFKPGAFIA [LPCAT4] ?
RESULT: Criterion not met

QUERY: protein stability index >= 4 for LSVIQMVAFLEQRASALLASCSKN [FBXO34] ?
RESULT: Criterion not met

QUERY: protein stability index >= 4 for ANRWSFEGMDRWIKKIEEHAPGVP [RAB40A] ?
RESULT: Criterion not met

QUERY: protein stability index >= 4 for ECFETLRGDERILSILRHQNLLKE [CHGA] ?
RESULT: Criterion not met

QUERY: protein stability index >= 4 for RRENYGVPPRRATISSWRNDRMST [RBMY1A1] ?
RESULT: Criterion not met

QUERY: protein stability index >= 4 for MDSGCWLFGGEFEDSVFEERPERR [C8orf76] ?
RESULT: Criterion met

###

Answer each item with its documented protein stability index.
Test: protein stability index of a GFP-peptide fusion (GPS, HEK-293T) (PSI 1-6); higher = more stable
Conditions: treatment: MLN4924 1 uM, 8 h; c terminus: a fixed tail appended

Recorded protein stability index, per entry:
Sequence	protein stability index
IVETLTVGCKGSKAGIEQEGYWLP [ZMYND11]	2.26
DNAEAAFSDDEEDLNSKGKKREFR [INTS3]	5.47
GFQPPSPSLRPRPASSISLPIGHL [DMRTC1]	3.44
RCMQCDAKFDFLTRKHHCRRCGKC [ZFYVE21]	4.3
LRKKKTTKLRLERVKFRRQEANAR [NEUROD6]	3.59

Give one value of protein stability index per listed sequence.
1. GAQIWCGEGVDKLSLPARNQAGYF [ALDH8A1]
2. ALIPYVLNPSKLMEKEINGSKVTC [ATL3]
3. DEVARRWGKRKNKPKMNYEKLSRG [ETS2]
4. GSIEYSCPASNECEITKRRRKACQ [ESRRA]
5. IITSRILVDQVTGVSRGVGFIRFD [ELAVL3]
6. GFRESDSAKPASLRLLQHTPSARR [C6orf223]
7. DMLREMFSDSRSNNDDDEDEDDED [TAF7L]
8. IGGVATVVCQPNEFIMPDSAVVGD [SEPHS2]

RESULT:
2.65
2.2
4.31
4.97
2.53
4.67
5.63
3.76

###

Experiment: protein stability index of a GFP-peptide fusion (GPS, HEK-293T) (PSI 1-6); higher = more stable
Settings: treatment: DMSO; c terminus: a fixed tail appended
# protein stability index >= 3 gives fulfilled, anything below gives not fulfilled

QUERY: protein stability index >= 3 for LMLELKSLQEEPVEGFRITLVDES [UBE2R2] ?
RESULT: not fulfilled

QUERY: protein stability index >= 3 for NETADLGLDIGAQGEPLGYRQDDP [CTNNB1] ?
RESULT: fulfilled

QUERY: protein stability index >= 3 for YMGKGSMTGLALKHMFERSFTQGE [MATN2] ?
RESULT: not fulfilled

QUERY: protein stability index >= 3 for KEIESQGSIPGFLISSGMSSHKQG [TAF7L] ?
RESULT: fulfilled

###

Experiment: protein stability index of a GFP-peptide fusion (GPS, HEK-293T) (PSI 1-6); higher = more stable
Conditions: treatment: DMSO; c terminus: a fixed tail appended
# protein stability index >= 3 gives criterion met, anything below gives criterion not met

Some solved cases for reference:
Sequence	Label class
AKVKGHRSQKHKERIRLLRQKREA [C18orf25]	criterion met
REHELLCRADHGLLLERAAAGSPR [ISL2]	criterion met
CGLLPISPEALSLGEVAYHDYHGI [ADD1]	criterion not met
FTELRLLLDEEEALAKKFIDKNTQ [TRIM14]	criterion not met
PKAKAKAKAKAKDQTKAQAAAPAS [RPL29]	criterion met

QUERY: protein stability index >= 3 for HFRHPKRSVSLSMRKSGAMKKGGI [BNIP3L] ?
RESULT: criterion met

QUERY: protein stability index >= 3 for VGLIQAAQQLLCDEQAPQRQRLLA [DFFB] ?
RESULT: criterion met

###

Experiment: protein stability index of a GFP-peptide fusion (GPS, HEK-293T) (PSI 1-6); higher = more stable
Settings: treatment: DMSO; c terminus: a fixed tail appended
Answer each item with its documented protein stability index.
Give bare numbers.

Sequence	Property measured	Result
ASETFNYSAIDRVKSRGKRLALEK [PI4K2A]	protein stability index	4.22
AHEIERLQMEMKEDDVSFLMKHKS [TRIM35]	protein stability index	4.83
IITIGYNVYHSYDLPWFRTLSWYF [CDS2]	protein stability index	3.08
ESTLYPNPYHQPYISRKYFATRPG [TPRG1]	protein stability index	2.76
RKDMIAEKLAPSEITEELPSSQLM [ZNF396]	protein stability index	4.98
CQLALQQKRETLSPLCLIPMVTSP [KCTD13]	protein stability index	2.27

Give one value of protein stability index per listed sequence.
1. PSDLDQFSDSSLIEDSQALHKRPK [LURAP1L]
2. PLSPPPINYNGIFSLKQEETLDYG [NEUROD6]
3. GYDDDNHDYIVRSGERWLERYEID [DYRK1B]
4. KSAAMLAVFAVSAVVHEYALAVCL [SOAT1]
5. VNSTLKELRRLFLVQDLVDSLKFA [RTN1]
6. ERAAAQARRELQAEREALQARLRD [ZBED3]
7. NVKLQELINHKKAEDTEKKDEPSK [CEP70]

RESULT:
1: 5.49; 2: 4.63; 3: 4.11; 4: 3.22; 5: 2.44; 6: 5.27; 7: 5.35

###

Assay: protein stability index of a GFP-peptide fusion (GPS, HEK-293T) (PSI 1-6); higher = more stable
Details: treatment: DMSO; c terminus: a fixed tail appended
Property measured: protein stability index
Give bare numbers.

Recorded protein stability index, per entry:
Sequence	Result
EAMYHCCWNTSYCSIKCQQEHWHA [ZMYND11]	2.3
LDQLLRHVMNPLETLSITNCRLSE [PRAME]	2.59
YLYYDPDYSFLSLGVYSALREIAF [ATE1]	2.92
HQHEEIQNVRNHIHSCFSDVTCFL [ATL3]	2.26
AVHLCNALVCQVDNDHKEAVGKMG [ZER1]	3.75
AGPAFDSDPEISDVDEDEPGGLVG [PPFIA4]	5.19
QPAKKPLLWSDPADNKIVSHLLVA [ESRRG]	2.36
TGYPYRYPALREKSKKYSDVEVPA [ADD1]	3.67
IPAVLTVSMLGYPFILPDMVGGNA [MYORG]	2.87
QHYTETALDEIKLLKCVRESDPSD [SRPK2]	4.82

Give one value of protein stability index per listed sequence.
1. EVTVQRNCCLTLCNFSIPEELEFQ [ZER1]
2. SREWSGKEKWWDGQRDRKAEHWKH [PBXIP1]
3. REFKVTDARDGQSRTVRQFQFTDW [PTPRD]

RESULT:
1. 2.68
2. 3.69
3. 3.16

###

Assay: protein stability index of a GFP-peptide fusion (GPS, HEK-293T) (PSI 1-6); higher = more stable
Details: treatment: DMSO; c terminus: a fixed tail appended
Would you mind sorting the entries by protein stability index according to these classes? group 1 (below 3), group 2 (3 to below 4), group 3 (4 or more)

Sequence	Label class
IEAGAHMDATNAFKKTAYELLDEK [FEM1A]	group 3

QUERY: Band assignment needed for KFYAVLKGTILYLQKDEYRPDKAL [PSD2] please.
RESULT: group 1

QUERY: Band assignment needed for FEYRGEQHKTCMLNATSKFMEFYQ [EDNRA] please.
RESULT: group 1

QUERY: Band assignment needed for FTCDEENVFAAVGRGLYVYSLQMK [WDR41] please.
RESULT: group 1

QUERY: Band assignment needed for VLDLQRIFALYSSLKFKSRVPQTW [PLD5] please.
RESULT: group 2

QUERY: Band assignment needed for PPLSGRSTPKLTSRSAAQDLDRMG [PPFIA4] please.
RESULT: group 3

QUERY: Band assignment needed for MPSKLFAGLVHVKQCIVAHPVNPP [CRYL1] please.
RESULT: group 1

QUERY: Band assignment needed for LYNMDLSDDHIRVIVQLHKLRHLD [ZER1] please.
RESULT: group 1

QUERY: Band assignment needed for DAINEEIRMIQEEKESTELRAEEI [PPFIA4] please.
RESULT: group 3

QUERY: Band assignment needed for VKRKKNVLRLCCKKLKIFAMPMQD [PRAME] please.
RESULT: group 1

QUERY: Band assignment needed for NIHQLQNRLSELEVANKDLTERKY [SASS6] please.
RESULT: group 2

QUERY: Band assignment needed for KLPLPIALRSHLKSFSMANGLNAR [RAB40B] please.
RESULT: group 1

QUERY: Band assignment needed for LDMDEGTLSFIVDGQYLGVAFRGL [SPSB4] please.
RESULT: group 1

QUERY: Band assignment needed for TLEEIQKHNHSKSTWLILHHKVYD [CYB5A] please.
RESULT: group 1

QUERY: Band assignment needed for DVVFEIQGTTVPAHRAILVARCEV [RHOBTB3] please.
RESULT: group 1

QUERY: Band assignment needed for MMRREDEEEEGTMMKAKGDLEMKE [ZBED2] please.
RESULT: group 3

QUERY: Band assignment needed for FKLADPDEVARRWGKRKNKPKMNY [ETS2] please.
RESULT: group 2

QUERY: Band assignment needed for GLHRRPGAGHCSASPGPAAPTARM please.
RESULT: group 2

QUERY: Band assignment needed for SPHSPDSSQSSLAQEEEEEDQGRT [DDIT3] please.
RESULT: group 3

QUERY: Band assignment needed for HWACKRNHGQVVSYLLKSGADKEI [ANKRD40] please.
RESULT: group 1

QUERY: Band assignment needed for IKGKEGSALTEGAKEEGGEEVAKA [EPB41L3] please.
RESULT: group 3
